Test system: house flies
PROTOCOL_DETAILS: Campbell's turn table oil spray test on house fly adults (Experimental Example 1)
Assay type: in vivo
DETAILS: Musca domestica, 24 h, oil spray 5 ml, 10 min exposure, mortality after 1 day, read-out: LC50 (50 percent lethal concentration)
MEASUREMENT_LABEL: LC50 (mg/L)
One number for each entry, in mg/L.

Some compounds with recorded LC50:
{"COMPOUND": "C#CCc1ccc(COC(=O)C2C(C=C(C)C)C2(C)C)cc1 (centres unmarked) [4-Propargylbenzyl chrysanthemate, reference compound]", "LC50 [mg/L]": 850}
{"COMPOUND": "CC(C)=CC1C(C(=O)OCc2coc(Cc3ccccc3)c2)C1(C)C (centres unmarked) [5-Benzyl-3-furylmethyl chrysanthemate, 5-benzyl-3-furylmethyl chrysanthemate, reference compound]", "LC50 [mg/L]": 100}
{"COMPOUND": "COC(=O)C(C)=CC1C(C(=O)OCc2cccc(Oc3ccccc3)c2)C1(C)C (centres unmarked) [3-Phenoxybenzyl pyrethrate, reference compound]", "LC50 [mg/L]": 1250}
{"COMPOUND": "CC(C)=CC1C(C(=O)OCc2cccc(Cc3ccccc3)c2)C1(C)C (centres unmarked) [3-Benzylbenzyl chrysanthemate, reference compound]", "LC50 [mg/L]": 270}
{"COMPOUND": "COC(=O)C(C)=CC1C(C(=O)OCc2coc(Cc3ccccc3)c2)C1(C)C (centres unmarked) [5-Benzyl-3-furylmethyl pyrethrate, reference compound]", "LC50 [mg/L]": 890}
{"COMPOUND": "C=CC=CC1C(C(=O)OCc2cc3c(o2)CCCC3)C1(C)C (centres unmarked)", "LC50 [mg/L]": 110}
{"COMPOUND": "CC=CC=CC1C(C(=O)OCc2coc(Cc3ccccc3)c2)C1(C)C (centres unmarked)", "LC50 [mg/L]": 56}
{"COMPOUND": "C#CCc1ccc(C(C#C)OC(=O)C2C(C=C(C)C=C)C2(C)C)o1 (centres unmarked)", "LC50 [mg/L]": 90}
{"COMPOUND": "C=CC(C)=CC1C(C(=O)OCC=C(Cl)Cc2ccccc2)C1(C)C (centres unmarked)", "LC50 [mg/L]": 190}
{"COMPOUND": "C=CC=CC1C(C(=O)OCc2coc(Cc3ccccc3)c2)C1(C)C (centres unmarked)", "LC50 [mg/L]": 44}

Hello, I would appreciate it if you could give LC50 for each entry below.
1. C=C(C)C=CC1C(C(=O)OCc2coc(Cc3ccccc3)c2)C1(C)C (centres unmarked)
2. C#CCc1ccc(C(C#C)OC(=O)C2C(C=C(C)C)C2(C)C)o1 (centres unmarked) [reference compound]
3. C#CCc1ccc(C(C#C)OC(=O)C2C(C=C(C)C(=O)OC)C2(C)C)o1 (stereo not drawn) [5-Propargyl-α-ethynylfurfuryl pyrethrate, reference compound]
4. C=CCC1=C(C)C(OC(=O)C2C(C=C(C)C)C2(C)C)CC1=O (centres unmarked) [Allethrin, reference compound]
5. CC=CC(C)=CC1C(C(=O)OCc2coc(Cc3ccccc3)c2)C1(C)C (centres unmarked)
6. CC(C)=CC=CC1C(C(=O)OCc2coc(Cc3ccccc3)c2)C1(C)C (centres unmarked)
7. C=CC(C)=CC1C(C(=O)OCc2coc(Cc3ccccc3)c2)C1(C)C (centres unmarked)
8. CC(C)=CC1C(C(=O)OCc2cccc(Oc3ccccc3)c2)C1(C)C (centres unmarked) [3-Phenoxybenzyl chrysanthemate, reference compound]

RESULT:
1: 71; 2: 260; 3: 820; 4: 1180; 5: 66; 6: 52; 7: 53; 8: 170
